Test system: CAKI-1 renal
Experimental details: NCI-60 one-dose screen, 48 h
Experimental setup: 10 µM unless noted
Compounds without any hit were thinned out: in the full panel of roughly 83,000, 20% have a hit. Calls of active or inactive are those of the source. Rule for the calls: active = growth percent below 10; inactive = the rest.
Write down the outcome that applies. Available outcomes: 1.0 = active, 0.0 = inactive

[Q] What call does the record list for Cc1nc2c(-c3cnc(N)nc3)nc(N3CCOCC3)nc2n1C(C)C ?
[A] 1.0

[Q] Next compound up: Cc1c(-c2ccc(-c3ccccc3F)cc2)nc2ccc(F)cc2c1C(=O)O
[A] 0.0

[Q] Entry to check: c1ccc(C(Nc2ccccn2)(c2ccccc2)c2ccccc2)cc1
[A] 0.0

[Q] What do you get for COc1cc(C)cc2oc3oc(=O)c(-c4csc(-c5cc6ccccc6oc5=O)n4)cc3c(=O)c12 ?
[A] 0.0

[Q] And CCc1ccc2c(c1)N(CCO)C1=C(C(=O)OC1)C2c1cccc(Cl)c1 (stereo not given) ?
[A] 0.0

----------
Tested on: SW-620 colon
Experimental details: NCI-60 one-dose screen, 48 h
Experimental setup: 10 µM unless noted
About 83,000 compounds went through this panel and 20% of them were active in at least one assay; those are over-represented in the sample as a whole. The source made the active and inactive calls. The calls were made as follows: active = growth percent below 10; inactive = the rest.
Respond using exactly one of the listed classes: active, inactive

[Q] Answer briefly: the call reported for NS(=O)(=O)c1ccc(N2N=C(c3ccc(Br)cc3)CC2c2cn(-c3ccccc3)nc2-c2ccc(Cl)cc2)cc1 (stereo not given) in this assay.
[A] inactive

[Q] Moving on to the next molecule: CCN(CC)C(Cl)=Nc1ccc(Cl)cc1
[A] inactive

[Q] Next molecule up: COc1ccc(-c2cnc3ccnn3c2-c2cc(OC)c(OC)c(OC)c2)cc1
[A] inactive

[Q] Same question, CNC(=O)c1cc(Oc2ccc(NC(=O)c3nc(S(C)(=O)=O)sc3-c3ccc(F)cc3)cc2)ccn1 this time
[A] inactive

[Q] Now give it for CCCCCc1c(C)[nH]c(/C=C2\N=C(c3ccc[nH]3)C=C2CC)c1C too.
[A] active

[Q] Try this molecule next: CN1CCN(Cc2ccc(NC(=O)c3cncc(C#Cc4cnc5cccnn45)c3)cc2C(F)(F)F)CC1
[A] active

[Q] Check Cc1cccc(C(=O)O)n1 too.
[A] inactive

[Q] Now the molecule O=C(Nc1ccc2[nH]c3ccccc3c2c1)c1ccccc1Cl
[A] inactive

[Q] Repeat with COc1ccc(C2C=C(c3ccc(Cl)cc3)N=C3SC=CN32)cc1 (stereo not given)
[A] inactive

[Q] Now try C=C1NC(=O)C(C(C)CC)NC(=O)C2CSCC(NC(=O)CCC(=O)O)C(=O)NC(Cc3ccccc3)C(=O)NC(C)C(=O)NC(CC(C)CC)C(=O)NC(C(=O)NC(Cc3ccccc3)C(=O)N3CCCC3C(=O)N2)C(C)OC(=O)C(CO)NC(=O)C(C(O)COC)N(C)C(=O)C(C(C)C)NC(=O)C(CC(C)CC)NC1=O (stereo not given) .
[A] inactive

[Q] And what about the molecule CCCCCCCCCCCC1=NC(C)(C)CN1C(C)(C)CO ?
[A] inactive

[Q] Repeat with O=C(CI)NCCNc1cccc2c(S(=O)(=O)O)cccc12
[A] inactive

[Q] Consider next the molecule N#Cc1nc(-c2ccc(Cl)cc2)cc(-c2ccc(Nc3nc(N4CCCCC4)nc(N4CCCCC4)n3)cc2)c1N in the same way.
[A] inactive

[Q] Let us now turn to CCOc1c(C#N)c2c(N)ncnc2n1C1OC(CO)C(O)C1O (stereo not given)
[A] active

[Q] What do you get for Oc1[nH]c2ccc(Cl)cc2c1/C=c1/ccc2c(c1)N=C(c1ccc(F)cc1)N=2 ?
[A] inactive

----------
So I've got a bunch of compounds here, and I need their growth values.
Test system: T-47D breast
Experimental details: NCI-60 one-dose screen, 48 h (100 = growth as untreated, 0 = no growth, -100 = all killed)
Experimental setup: 10 µM unless noted
About 83,000 compounds went through this panel and 20% of them were active in at least one assay; those are over-represented in the sample as a whole.
Numeric only. Scale: %

[Q] Could you tell me which growth is on file for CC(=O)c1ccc(-n2c(-c3cc(-c4ccsc4)n[nH]3)n[nH]c2=S)cc1 ?
[A] 103

[Q] Then what about the compound O=C1CC2(O)CSc3nc(=O)cc(n32)N1 (configuration not stated) ?
[A] 104

[Q] Further, for COCCn1c(Nc2ccc(C(=O)NO)cc2)nc2ccccc21 ?
[A] 35.3

[Q] Do the same for O=Cc1ccc2nc(C(Cl)(Cl)Cl)ccc2c1 please
[A] 97.6

[Q] Quick one: COc1cc(NC(C)CCCN)c2ncccc2c1Oc1ccc(Cl)cc1 (configuration not stated)
[A] 76.8

[Q] For COc1cc2nccc(Oc3ccc(NC(=O)C4(C(=O)Nc5ccc(F)cc5)CC4)cc3)c2cc1OC(=O)c1ccc(N)cc1 then?
[A] 19.5

[Q] What do you have for CCCCCCCCCCCCCCC(C(=O)OCC)C(=O)OCC ?
[A] 101

[Q] Also need SCc1ccc(CS)cc1 , thanks.
[A] 101

[Q] Follow-up entry: c1ccc(C2=Nc3ccccc3SC2)cc1
[A] 100

[Q] What would you report for CC(C)COC(=O)NC(C)(C)C ?
[A] 99.6

[Q] Now consider Cc1ccc(O)c(Cc2ccccc2)c1 and answer again.
[A] 101

[Q] And what about the compound O=[N+]([O-])c1cccc([I+]c2ccccc2)c1 ?
[A] 50.1

----------
Tested on: NCI-H322M lung
Experimental details: NCI-60 one-dose screen, 48 h (100 = growth as untreated, 0 = no growth, -100 = all killed)
Experimental setup: 10 µM unless noted
Experimental: Growth inhibition of the NCI-H322M human Non-Small Cell Lung tumor cell line is measured as a screen for anti-cancer activity. Cells are grown in 96 well plates and exposed to the test compound for 48 hours. Compounds are tested at a single concentration, which is 10^-5 M for most compounds. The reported endpoint is percent growth (GI% or GIPRCNT), where numbers from 0 - 100% represent growth inhibition, and numbers from -100% - 0 represent cell death. […]
Compounds without any hit were thinned out: in the full panel of roughly 83,000, 20% have a hit.
For each of the compounds below, state its growth.
Give just the number in %; leave the unit off.

[Q] I'd like to know its growth. The compound in question is Cc1ccc(-c2nc3ccccc3c(=O)n2/N=C/c2cccc3ccccc23)cc1
[A] 54.7

[Q] What would you report for COc1cc(C2CC(c3cccc(Nc4ccnc5cc(Cl)ccc45)c3)=NN2c2ccc(Cl)cc2)cc(OC)c1OC (configuration not stated) ?
[A] 81.4

[Q] Same question for COc1ccc2[nH]c(O)c(/C=c3/ccc4c(c3)N=C(c3ccc(C(F)(F)F)cc3)N=4)c2c1 please.
[A] 76.1

[Q] // query: C/C=C(\C)C(C(=O)NC1CCCCC1)N(C(=O)C1CCc2cc(F)ccc2O1)c1ccc([N+](=O)[O-])cc1 (configuration not stated)
[A] 92.8

[Q] Now the same for Cc1nn(-c2ccc(Cl)cc2)c(=O)n1CCN1CCOCC1
[A] 92.3

[Q] And what about the compound Cc1ccc(NC(=O)Cn2nncc2CN2C(=O)CSC2=O)cc1C ?
[A] 103

[Q] Okay, and COc1cc2c(cc1OC)C(=O)OC2 ?
[A] 116

[Q] Again, but for CCOP(=O)(O)OP(=O)(O)OCC
[A] 98.1

[Q] Also need C[C@]12CCc3nc(Nc4ccc(O)cc4)sc3C1=CC[C@@H]1[C@@H]2CC[C@]2(C)/C(=N/NC(N)=S)CC[C@@H]12 , thanks.
[A] 4.16

[Q] Quick one: COc1ccccc1/C=N\NC(=S)Nc1ccc(F)cc1
[A] 96

[Q] Request: Cc1cc(C)cc(Nc2cc(C)nc3nc(C(F)(F)F)nn23)c1
[A] 25

[Q] Now this one: CCCCCCCCCCCCCCCCCC1=NC(C)(C)CN1C(C)(C)CO
[A] 16.3

----------
Tested on: SF-539 CNS
Experimental details: NCI-60 one-dose screen, 48 h
Experimental setup: 10 µM unless noted
This is part of a sample that, as a whole, favours compounds with a hit. Of some 83,000 tested, about 20% had one in any assay. The source made the active and inactive calls. The calls were made as follows: active = growth percent below 10; inactive = the rest.
Response enum: active, inactive

[Q] Assay outcome for COc1ccc(/C=C2\N=C(c3cccnc3)N(c3ccccc3)NC2=O)cc1 : what was it?
[A] inactive

[Q] Then this molecule: C=CC[C@]1(O)CC[C@H]2[C@@H]3CCc4cc(O)ccc4[C@H]3CC[C@@]21C
[A] inactive

[Q] Here is the next molecule: OC(c1cc2c(Cl)cc(Cl)cc2c2cc(C(F)(F)F)ccc12)C1CCCCN1 (stereo unspecified)
[A] active

[Q] Next record, please: CN(C)CCOc1nc2c3cccnc3cc(-c3cccc(Cl)c3)c2c2ncccc12
[A] inactive

[Q] Item: O=c1c2sc3ccccc3c2nnn1-c1ccc(F)c(Cl)c1
[A] inactive

[Q] Now consider COc1ccc(/C=c2\c(=O)n(-c3ccccc3)c3nn4c(=O)c(=O)[nH]nc4n23)cc1 .
[A] inactive

[Q] Field entry: COc1cccc(NC(=O)c2c(-c3ccccc3)c(-c3ccccc3)n[nH]c2=O)c1
[A] inactive

[Q] Follow-up entry: Cc1ccc(N=CNN=C(N)N)cc1
[A] inactive

[Q] Then this molecule: O=C(Nc1ccc(Br)cc1)Nc1ccccc1Cl
[A] inactive

[Q] Another molecule: CCOC(=O)c1ccc(NC(=O)NC2=NCCS2)cc1
[A] active

[Q] Quick one: COc1cc(NC(C)CCCN)c2ncccc2c1Oc1ccc(Cl)cc1 (stereo unspecified)
[A] inactive
